The measured values listed here are drawn from ChEMBL document CHEMBL4373714.

System: NCI-H226
Assay: Antiproliferative activity against human NCI-H226 cells assessed as reduction in cell viability after 24 hrs by CCK8 assay
Type: functional, cell-based
Conditions: NCI-H226, 24 h
Counter-ions that a name gives are not always drawn.
measure: IC50 (µM)

>  <compound>
CC[C@H](C)C(=O)[C@@H](C)C1=C(OC)C(=O)C2=C(O[C@]3(C)CC[C@H]4O[C@@H](C(C)(C)O)CC[C@]4(C)[C@H]3[C@@H]2O)C1=O

>  <measure>
IC50

>  <qualifier>
>

>  <number>
10

$$$$
>  <compound>
C/C=C(\C)C(=O)[C@@H](C)c1cc(O)c2c(c1O)O[C@]1(C)CC[C@H]3O[C@@H](C(C)(C)O)CC[C@]3(C)[C@H]1[C@@H]2O

>  <measure>
IC50

>  <qualifier>
=

>  <number>
5.5

$$$$
>  <compound>
C/C=C(\C)C(=O)[C@@H](C)C1=CC(=O)C2=C(O[C@]3(C)CC[C@H]4O[C@@H](C(C)(C)O)CC[C@]4(C)[C@H]3[C@@H]2O)C1=O

>  <measure>
IC50

>  <qualifier>
>

>  <number>
10

$$$$
>  <compound>
C/C=C(\C)C(=O)[C@@H](C)C1=CC(=O)C2=C(O[C@]3(C)CC[C@H]4O[C@@H](C(C)(C)O)CC[C@]4(C)[C@H]3C2)C1=O

>  <measure>
IC50

>  <qualifier>
=

>  <number>
6.9

$$$$
>  <compound>
C/C=C(\C)[C@@H](OC(C)=O)[C@@H](C)C1=CC(=O)C2=C(O[C@]3(C)CC[C@H]4O[C@@H](C(C)(C)O)CC[C@]4(C)C3=C2)C1=O

>  <measure>
IC50

>  <qualifier>
>

>  <number>
10

$$$$
>  <compound>
C/C=C(\C)C(=O)[C@@H](C)C1=C(OC)C(=O)C2=C(O[C@]3(C)CC[C@H]4O[C@@H](C(C)(C)O)CC[C@]4(C)[C@H]3[C@@H]2O)C1=O

>  <measure>
IC50

>  <qualifier>
>

>  <number>
10

$$$$
>  <compound>
COc1cccc2c1C(=O)c1c(O)c3c(c(O)c1C2=O)C[C@@](O)(C(=O)CO)C[C@@H]3O[C@H]1C[C@H](N)[C@H](O)[C@H](C)O1 [DOXORUBICIN HYDROCHLORIDE]

>  <measure>
IC50

>  <qualifier>
=

>  <number>
0.3

$$$$
